# measurementTarget: Acetylcholinesterase (Electrophorus electricus, UniProt O42275)
# Sequence (O42275 whole entry): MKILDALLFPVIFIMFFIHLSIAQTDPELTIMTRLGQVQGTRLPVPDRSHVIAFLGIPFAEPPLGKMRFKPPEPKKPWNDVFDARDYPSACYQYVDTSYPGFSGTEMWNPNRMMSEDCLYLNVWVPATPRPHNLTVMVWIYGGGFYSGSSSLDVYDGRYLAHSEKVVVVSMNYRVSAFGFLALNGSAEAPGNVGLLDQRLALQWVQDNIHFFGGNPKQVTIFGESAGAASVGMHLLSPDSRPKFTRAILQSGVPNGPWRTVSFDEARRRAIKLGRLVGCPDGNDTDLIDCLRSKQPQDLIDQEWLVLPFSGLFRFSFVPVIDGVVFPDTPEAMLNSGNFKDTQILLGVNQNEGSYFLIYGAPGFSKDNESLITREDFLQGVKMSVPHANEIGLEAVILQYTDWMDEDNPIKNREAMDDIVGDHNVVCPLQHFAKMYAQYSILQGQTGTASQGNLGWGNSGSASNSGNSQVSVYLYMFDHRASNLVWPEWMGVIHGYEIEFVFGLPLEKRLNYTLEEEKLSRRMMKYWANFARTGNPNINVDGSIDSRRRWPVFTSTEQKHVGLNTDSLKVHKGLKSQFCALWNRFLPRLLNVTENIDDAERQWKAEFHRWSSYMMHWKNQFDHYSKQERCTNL
Threshold 30 µM: IC50 strictly smaller gives rule met, otherwise rule not met.

>  <compoundString>
Cc1ccc(-c2cn(Cc3ccc(C(F)(F)F)cc3)nn2)cc1C(=O)NCCN1CCOCC1

>  <measurementTarget>
Acetylcholinesterase (Electrophorus electricus, UniProt O42275)

>  <classification>
rule met

$$$$

Is 30 µM strictly greater than the compound's reported IC50? compound: Cc1ccc(-c2cn(Cc3ccc4ccccc4c3)nn2)cc1C(=O)NCCN1CCOCC1
rule met

Is 30 µM strictly greater than the compound's reported IC50? compound: Cc1ccc(-c2cn(Cc3ccccc3Cl)nn2)cc1C(=O)NCCN1CCOCC1
rule not met

Is 30 µM strictly greater than the compound's reported IC50? compound: Cc1ccc(-c2cn(C)nn2)cc1C(=O)NCCN1CCOCC1
rule not met

Is 30 µM strictly greater than the compound's reported IC50? compound: Cc1ccc(-c2cn(Cc3ccccc3F)nn2)cc1C(=O)NCCN1CCOCC1
rule not met

Is 30 µM strictly greater than the compound's reported IC50? compound: Cc1ccc(Cn2cc(-c3ccc(C)c(C(=O)NCCN4CCOCC4)c3)nn2)cc1
rule not met

Is 30 µM strictly greater than the compound's reported IC50? compound: Cc1ccc(-c2cn(Cc3ccccc3C(F)(F)F)nn2)cc1C(=O)NCCN1CCOCC1
rule not met

Is 30 µM strictly greater than the compound's reported IC50? compound: Cc1ccc(-c2cn(Cc3ccc(F)cc3)nn2)cc1C(=O)NCCN1CCOCC1
rule met

----------
A short record of IC50 observed with UniProtKB O42275 follows.

Worked cases, answers included:
>  <compoundString>
C#Cc1ccc(C)c(C(=O)NCCN2CCOCC2)c1

>  <measuredValue>
> 100 µM

$$$$
>  <compoundString>
Cc1cc(C)cc(Cn2cc(-c3ccc(C)c(C(=O)NCCN4CCOCC4)c3)nn2)c1

>  <measuredValue>
64.2 µM

$$$$
>  <compoundString>
Cc1ccc(-c2cn(Cc3ccc(Br)cc3)nn2)cc1C(=O)NCCN1CCOCC1

>  <measuredValue>
20.5 µM

$$$$
>  <compoundString>
COc1ccc(Br)c(Cn2cc(-c3ccc(C)c(C(=O)NCCN4CCOCC4)c3)nn2)c1

>  <measuredValue>
40.8 µM

$$$$

Provide the reported IC50 (system: UniProtKB O42275) for Cc1ccc(-c2cn(Cc3cccc(Br)c3)nn2)cc1C(=O)NCCN1CCOCC1
28.4 µM

----------
# experimentSummary: Selectivity ratio of IC50 for equine serum BuChE to IC50 for electric eel AChE
Parameter threshold = 2. Response is rule met when Ratio IC50 meets or exceeds it, else rule not met.

>  <compoundString>
Cc1ccc(-c2cn(Cc3ccc([N+](=O)[O-])cc3)nn2)cc1C(=O)NCCN1CCOCC1

>  <classification>
rule met

$$$$
>  <compoundString>
COC(=O)c1ccc(Cn2cc(-c3ccc(C)c(C(=O)NCCN4CCOCC4)c3)nn2)cc1

>  <classification>
rule not met

$$$$
>  <compoundString>
Cc1ccc(-c2cn(Cc3ccc(S(N)(=O)=O)cc3)nn2)cc1C(=O)NCCN1CCOCC1

>  <classification>
rule not met

$$$$
>  <compoundString>
Cc1ccc(-c2cn(Cc3ccccc3Br)nn2)cc1C(=O)NCCN1CCOCC1

>  <classification>
rule met

$$$$
>  <compoundString>
Cc1ccc(Cn2cc(-c3ccc(C)c(C(=O)NCCN4CCOCC4)c3)nn2)cc1

>  <classification>
rule not met

$$$$
>  <compoundString>
Cc1ccc(-c2cn(Cc3ccc(F)cc3Br)nn2)cc1C(=O)NCCN1CCOCC1

>  <classification>
rule met

$$$$
>  <compoundString>
Cc1ccc(-c2cn(Cc3ccc(C#N)cc3)nn2)cc1C(=O)NCCN1CCOCC1

>  <classification>
rule met

$$$$

Does Ratio IC50 meet or surpass 2 for Cc1ccc(-c2cn(Cc3ccc(F)c(F)c3)nn2)cc1C(=O)NCCN1CCOCC1 ?
rule met

----------
# measurementTarget: Acetylcholinesterase (Electrophorus electricus, UniProt O42275)
# experimentSummary: Inhibition of electric eel AChE preincubated for 6 mins followed by addition of acetylthiocholine iodide by Ellman's method
Threshold 30 µM: IC50 strictly smaller gives fulfilled, otherwise not fulfilled.

Solved cases below.
>  <compoundString>
COC(=O)/C=C/c1ccc(Cn2cc(-c3ccc(C)c(C(=O)NCCN4CCOCC4)c3)nn2)cc1

>  <classification>
not fulfilled

$$$$
>  <compoundString>
COC(=O)c1ccc(Cn2cc(-c3ccc(C)c(C(=O)NCCN4CCOCC4)c3)nn2)cc1

>  <classification>
not fulfilled

$$$$
>  <compoundString>
Cc1ccc(-c2cn(Cc3ccc(F)cc3Br)nn2)cc1C(=O)NCCN1CCOCC1

>  <classification>
not fulfilled

$$$$
>  <compoundString>
Cc1ccc(-c2cn(Cc3ccc(F)cc3Cl)nn2)cc1C(=O)NCCN1CCOCC1

>  <classification>
fulfilled

$$$$

We next turn to a different molecule, shown below.
Is 30 µM strictly greater than the molecule's reported IC50? molecule: Cc1ccc(-c2cn(Cc3ccc(F)c(F)c3)nn2)cc1C(=O)NCCN1CCOCC1
fulfilled

----------
# experimentSummary: Selectivity ratio of IC50 for equine serum BuChE to IC50 for electric eel AChE
experimentalEndpoint: Ratio IC50
Lab note: jot down the number only; don't add units.

>  <compoundString>
Cc1ccc(-c2cn(Cc3ccc4ccccc4c3)nn2)cc1C(=O)NCCN1CCOCC1

>  <measuredValue>
12.6

$$$$

Report measured Ratio IC50; entry is Cc1ccc(-c2cn(Cc3ccccc3Cl)nn2)cc1C(=O)NCCN1CCOCC1
1.1

Report measured Ratio IC50; entry is Cc1cc(F)ccc1Cn1cc(-c2ccc(C)c(C(=O)NCCN3CCOCC3)c2)nn1
1.6

Report measured Ratio IC50; entry is Cc1ccc(-c2cn(Cc3ccc(Br)cc3)nn2)cc1C(=O)NCCN1CCOCC1
2.2

Report measured Ratio IC50; entry is Cc1ccc(-c2cn(Cc3ccc(F)cc3Cl)nn2)cc1C(=O)NCCN1CCOCC1
6.6

Report measured Ratio IC50; entry is Cc1ccc(-c2cn(Cc3cccc(Cl)c3)nn2)cc1C(=O)NCCN1CCOCC1
1.1

Report measured Ratio IC50; entry is COc1ccc(Br)c(Cn2cc(-c3ccc(C)c(C(=O)NCCN4CCOCC4)c3)nn2)c1
1.2

Report measured Ratio IC50; entry is Cc1ccc(-c2cn(Cc3ccc(OC(F)(F)F)cc3)nn2)cc1C(=O)NCCN1CCOCC1
2

Report measured Ratio IC50; entry is Cc1ccc(-c2cn(Cc3cccc(F)c3)nn2)cc1C(=O)NCCN1CCOCC1
1.2

Report measured Ratio IC50; entry is Cc1ccc(-c2cn(Cc3cccc4ccccc34)nn2)cc1C(=O)NCCN1CCOCC1
1.58

Report measured Ratio IC50; entry is Cc1cc(C)cc(Cn2cc(-c3ccc(C)c(C(=O)NCCN4CCOCC4)c3)nn2)c1
0.9

Report measured Ratio IC50; entry is Cc1ccc(-c2cn(Cc3ccc(F)cc3)nn2)cc1C(=O)NCCN1CCOCC1
2.1

Report measured Ratio IC50; entry is Cc1ccc(-c2cn(C)nn2)cc1C(=O)NCCN1CCOCC1
1.5

Report measured Ratio IC50; entry is Cc1ccc(-c2cn(Cc3ccc(F)cc3F)nn2)cc1C(=O)NCCN1CCOCC1
3.7

Report measured Ratio IC50; entry is Cc1ccc(-c2cn(Cc3ccc(F)c([N+](=O)[O-])c3)nn2)cc1C(=O)NCCN1CCOCC1
1.2

Report measured Ratio IC50; entry is Cc1ccc(-c2cn(Cc3cccc(Br)c3)nn2)cc1C(=O)NCCN1CCOCC1
2

Report measured Ratio IC50; entry is COC(=O)/C=C/c1ccc(Cn2cc(-c3ccc(C)c(C(=O)NCCN4CCOCC4)c3)nn2)cc1
2

Report measured Ratio IC50; entry is Cc1ccc(-c2cn(Cc3ccccc3C(F)(F)F)nn2)cc1C(=O)NCCN1CCOCC1
1.3

----------
Entries annotated with measured pIC50
# measurementTarget: Acetylcholinesterase (Electrophorus electricus, UniProt O42275)
Give only the number. pIC50 is defined as minus log10 of concentration in molar units.

>  <compoundString>
Cc1ccc(-c2cn(Cc3ccc(C#N)cc3)nn2)cc1C(=O)NCCN1CCOCC1

>  <pIC50>
4.92

$$$$
>  <compoundString>
Cc1ccc(-c2cn(Cc3ccc(F)c([N+](=O)[O-])c3)nn2)cc1C(=O)NCCN1CCOCC1

>  <pIC50>
4.52

$$$$

Report measured pIC50; entry is Cc1cc(F)ccc1Cn1cc(-c2ccc(C)c(C(=O)NCCN3CCOCC3)c2)nn1
4.43

Report measured pIC50; entry is Cc1ccc(-c2cn(Cc3cccc4ccccc34)nn2)cc1C(=O)NCCN1CCOCC1
4.34

Report measured pIC50; entry is Cc1ccc(-c2cn(Cc3cccc(Cl)c3)nn2)cc1C(=O)NCCN1CCOCC1
4.49

Report measured pIC50; entry is Cc1ccc(-c2cn(Cc3ccc(F)cc3F)nn2)cc1C(=O)NCCN1CCOCC1
4.61

Report measured pIC50; entry is Cc1ccc(-c2cn(Cc3cccc(F)c3)nn2)cc1C(=O)NCCN1CCOCC1
4.52

Report measured pIC50; entry is Cc1ccc(-c2cn(Cc3ccc([N+](=O)[O-])cc3)nn2)cc1C(=O)NCCN1CCOCC1
4.69

Report measured pIC50; entry is Cc1ccc(-c2cn(Cc3ccccc3Br)nn2)cc1C(=O)NCCN1CCOCC1
4.45
